assay: HUVEC growth inhibition – cell-based, human, primary screen (AID 575); settings: HUVEC proliferation, CellTiter-Glo luminescence, 72 h; at 10 µM; hits give low values;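 also: 100% = median of untreated cell wells with 0.1% DMSO on each plate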
The source made the active and inactive calls.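 The calls were made as follows: active = viability at or below 30% in both replicate assays; inconclusive = viability at or below 30% in just one of the two assays; inactive = the rest.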
Quick reference: viability of the listed items.

>  <COMPOUND>
CCNCc1cc2cc(C)ccc2[nH]c1=O

>  <viability>
80.6% (inactive)

$$$$
>  <COMPOUND>
COc1ccccc1C(=O)Nc1ccccc1C(=O)N1CCCC1

>  <viability>
92.3% (inactive)

$$$$
>  <COMPOUND>
COCC(=O)NC(c1ccccc1)c1ccccc1

>  <viability>
86.1% (inactive)

$$$$
>  <COMPOUND>
CCOC(=O)c1ccc(NC(=O)CCc2nc(-c3ccc(C)cc3)no2)cc1

>  <viability>
38% (inactive)

$$$$
>  <COMPOUND>
C=CCSc1nc2c(c(=O)[nH]c(=O)n2C)n1CC

>  <viability>
85.7% (inactive)

$$$$
>  <COMPOUND>
Cc1ccc(-c2nn3c(C)nnc3s2)cc1N

>  <viability>
83.5% (inactive)

$$$$
>  <COMPOUND>
Nc1nc(-c2ccc(Cl)cc2)cc(C(F)(F)F)n1

>  <viability>
107% (inactive)

$$$$
>  <COMPOUND>
Cc1noc(NS(=O)(=O)c2ccc(N)cc2)c1C

>  <viability>
91% (inactive)

$$$$
>  <COMPOUND>
COc1ccc(C)cc1NC(=O)CN1CCN(S(=O)(=O)c2ccc(Cl)cc2)CC1

>  <viability>
74.7% (inactive)

$$$$
>  <COMPOUND>
Cc1cc(NC(=O)CSc2nc(C3CC3)nc3sc4c(c23)CCC(C)C4)no1 (stereo not drawn)

>  <viability>
108% (inactive)

$$$$
>  <COMPOUND>
CCN(CC)CC(=O)Nc1ccc(-c2nc3cc(NC(=O)CN(CC)CC)ccc3o2)cc1

>  <viability>
3.96% (active)

$$$$
>  <COMPOUND>
COc1ccc(OC)c(Nc2ncnc3c2cnn3-c2ccccc2)c1

>  <viability>
99.3% (inactive)

$$$$
>  <COMPOUND>
COc1ccccc1NC(=O)Cc1noc(CSc2cc(C)c3ccccc3n2)n1

>  <viability>
89.5% (inactive)

$$$$
>  <COMPOUND>
c1ccc(-c2cc(-c3nc(-c4ccccn4)no3)c3ccccc3n2)cc1

>  <viability>
63.9% (inactive)

$$$$
>  <COMPOUND>
C=CCN1C(=O)CS/C1=N/c1nccs1

>  <viability>
96.5% (inactive)

$$$$
>  <COMPOUND>
COc1cc2c(cc1NC(=O)CSc1nnc(Cc3cccs3)n1C)oc1ccccc12

>  <viability>
54.4% (inactive)

$$$$
>  <COMPOUND>
CCc1ccc2[nH]c(=O)c(C(c3nnnn3CC3CCCO3)N3CCN4CCCC4C3)cc2c1 (stereo not drawn)

>  <viability>
109% (inactive)

$$$$
>  <COMPOUND>
COc1cccc(Nc2nnc(SCC(=O)N3CC(C)OC(C)C3)s2)c1 (stereo not drawn)

>  <viability>
75.3% (inactive)

$$$$
>  <COMPOUND>
COc1ccc(N2CCN(C(=O)CSc3ccccc3N)CC2)cc1

>  <viability>
88.2% (inactive)

$$$$
>  <COMPOUND>
O=C(Nc1cc(C(F)(F)F)ccc1Cl)c1cc(C2CC2)on1

>  <viability>
96.4% (inactive)

$$$$
>  <COMPOUND>
COc1ccc(-c2nc(CS(=O)CC(=O)N3CCCC3)c(C)o2)cc1 (stereo not drawn)

>  <viability>
80.8% (inactive)

$$$$
>  <COMPOUND>
O=C(NCC(=O)N(Cc1cccs1)C(C(=O)NC1CCCC1)c1ccncc1)c1ccco1 (stereo not drawn)

>  <viability>
109% (inactive)

$$$$
>  <COMPOUND>
COc1cc(-c2noc(-c3ccccc3C(=O)NCc3ccco3)n2)cc(OC)c1OC

>  <viability>
55.6% (inactive)

$$$$
